Values were extracted from a melting point compilation (Tetko et al.; mined from patent text by program, amines drawn as free bases though some values may be those of a salt).

Recorded measurements of melting point, one per entry

Here is how some compounds turned out for melting point.
item_smiles=C=CCOc1cccc(C[C@H](NC(=O)OC(C)(C)C)C(=O)OC)c1 quantity_measured="melting point" result="50 to 51 °C"
item_smiles=COc1ccc(S(=O)(=O)c2ccccc2)cc1S(=O)(=O)NCCc1cccnc1 quantity_measured="melting point" result="181 to 183 °C"
item_smiles=COC(=O)c1sc(-c2ccc(OC)cc2)cc1NC(C)=O quantity_measured="melting point" result="148 to 149 °C"

Task: Which melting point is listed for CC(=O)Oc1cc(C(C)=O)c(O)cc1NS(C)(=O)=O ?
Output: 205 to 206 °C

Task: I would be grateful if you could share the reported melting point for NC(=O)c1cc2n(c1)CCc1ccccc1C2=O .
Output: 228 °C

Task: Value lookup for melting point; key = O=[N+]([O-])c1cnn2c(-c3ccncc3)ccnc12
Output: 241 to 244 °C

====

quantity measured: melting point

Answered examples (3):
compound=CCc1noc(-c2cc3c(cn2)[nH]c2ccc(N(C)C)cc23)n1 result="235 to 240 °C"
compound="O=C1NC(=O)C(S(=O)(=O)c2ccccn2)S1 (configuration not stated)" result="129 to 131 °C"
compound=CC(C)n1nc2cccc([N+](=O)[O-])c2n1 result="65 to 67 °C"

Task: For the compound CN1CCN(c2nc3sc4c(NCc5cccnc5)ncnc4c3c3c2CCC(C)(C)C3)CC1 , what melting point is on record?
Output: 210 to 212 °C

Task: Param item = Nc1ccc(SCC2CCC2)cc1[N+](=O)[O-] ; retrieve measured melting point.
Output: 49 to 53 °C

Task: Need melting point of CCCn1cc(Cc2ccc(C(=O)NS(=O)(=O)c3ccccc3C)cc2OC)c2cc(C=CCC(=O)N(C)C)ccc21 , thanks.
Output: 119 to 121 °C

====

Below is a list of entries, each paired with its recorded melting point value.

Worked cases, melting point given:
molecule=CCSc1nc(=O)[nH]cc1C result="181 to 184 °C"
molecule=Cc1cc2c(-c3ccccc3Cl)c(NC(=O)Nc3cccc(Cl)c3)c(=O)n(C)c2cc1C result="208 to 210 °C"
molecule=CN(C(=O)COc1nnc(-c2ccco2)s1)c1ccccc1 result="94 °C"
molecule=Clc1cccc(-c2ccc(Cl)nn2)c1 result="155 to 157 °C"
molecule=Cc1ccc(C=NNC(=O)OC(C)(C)C)cc1C result="168 to 169 °C"

Task: # melting point lookup, item CC(C)=CCCC(C)=CCOc1ccc(C(=O)NCCNc2cccnc2)cc1
Output: 88.5 to 89.2 °C

Task: Could you share which melting point value was measured for COc1ccc(Nc2nc(NC3CCCCCC3)nc(OCC3CCCN3)n2)cc1Cl (configuration not stated) ?
Output: 84 to 86 °C

Task: melting point lookup needed for CC[C@H]1[C@@H](O)CC(=O)N1c1ccc(C#N)c(Cl)c1F , thanks.
Output: 142 to 144 °C

Task: What value of measured melting point is listed for O=C(CO)Nc1nc2c(Cl)cccc2s1 ?
Output: 242 to 245 °C

Task: Quick one: melting point of Oc1ccc(-c2noc(C3CC3)c2-c2ccccc2)cc1 ?
Output: 197 to 200 °C

Task: Which value of melting point has been reported for CCONC(=O)C(=O)NN in the records?
Output: 182 °C

Task: Given the entry CCCc1nc2c(N)nc3ccccc3c2n1CCOCCCS(=O)(=O)c1ccccc1C , report its measured melting point.
Output: 159 to 160 °C

Task: Fill in the blank: the reported melting point of COC(=O)c1ncccc1NC(=O)C(C)CSC(C)=O (configuration not stated) is ____.
Output: 54 to 56 °C
